Measured log10 of IC50 accompanies every entry in the list below.
Protein target, amino acids: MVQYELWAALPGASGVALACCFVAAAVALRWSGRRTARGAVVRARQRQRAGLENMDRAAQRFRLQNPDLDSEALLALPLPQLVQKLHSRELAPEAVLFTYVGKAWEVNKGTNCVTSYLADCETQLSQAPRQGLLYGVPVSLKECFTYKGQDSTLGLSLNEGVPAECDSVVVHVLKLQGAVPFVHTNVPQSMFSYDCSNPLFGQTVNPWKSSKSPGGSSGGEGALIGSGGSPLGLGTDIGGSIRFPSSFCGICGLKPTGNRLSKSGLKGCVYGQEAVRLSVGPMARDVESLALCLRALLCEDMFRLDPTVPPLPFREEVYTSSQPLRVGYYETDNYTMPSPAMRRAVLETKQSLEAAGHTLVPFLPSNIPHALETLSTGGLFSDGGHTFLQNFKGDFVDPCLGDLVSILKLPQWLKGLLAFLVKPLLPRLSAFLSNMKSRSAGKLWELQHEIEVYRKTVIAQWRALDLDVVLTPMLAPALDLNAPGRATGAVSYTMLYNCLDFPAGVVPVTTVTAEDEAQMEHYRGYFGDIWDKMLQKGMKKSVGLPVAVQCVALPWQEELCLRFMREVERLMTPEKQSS
Metric name: log10 of IC50 (log10 of the value in µM)

Chemical string: O=C(N/N=C/c1ccc2[nH]ccc2c1)c1nc2ccccc2[nH]1
log10 of IC50: 0.60
//
Chemical string: O=C(N/N=C/c1ccc2ccccc2c1)c1nc2ccccc2[nH]1
log10 of IC50: 0.76
//
Chemical string: O=C(N/N=C/c1ccc(-c2ccccc2)cc1)c1nc2ccccc2[nH]1
log10 of IC50: 1.01
//
Chemical string: O=C(N/N=C/C1CCCCC1)c1cc(-c2ccccc2)[nH]n1
log10 of IC50: 1.62
//
Chemical string: O=C(N/N=C/c1ccccc1)c1nc2ccccc2o1
log10 of IC50: 1.40
//
Chemical string: CN(C(=O)n1cnc(-c2ccc[n+]([O-])c2)c1)C1CCCCC1
log10 of IC50: 0.61
//
Chemical string: N#Cc1ccc(/C=N/NC(=O)c2nc3ccccc3[nH]2)cc1
log10 of IC50: 1.32
//
Chemical string: O=C(N/N=C/c1ccc(F)cc1)c1nc2ccccc2[nH]1
log10 of IC50: 1.25
